Molecular target: Human α2δ-1 subunit of Cav2.2 calcium channel (Homo sapiens, UniProt P54289)
Sequence (P54289 25-1103): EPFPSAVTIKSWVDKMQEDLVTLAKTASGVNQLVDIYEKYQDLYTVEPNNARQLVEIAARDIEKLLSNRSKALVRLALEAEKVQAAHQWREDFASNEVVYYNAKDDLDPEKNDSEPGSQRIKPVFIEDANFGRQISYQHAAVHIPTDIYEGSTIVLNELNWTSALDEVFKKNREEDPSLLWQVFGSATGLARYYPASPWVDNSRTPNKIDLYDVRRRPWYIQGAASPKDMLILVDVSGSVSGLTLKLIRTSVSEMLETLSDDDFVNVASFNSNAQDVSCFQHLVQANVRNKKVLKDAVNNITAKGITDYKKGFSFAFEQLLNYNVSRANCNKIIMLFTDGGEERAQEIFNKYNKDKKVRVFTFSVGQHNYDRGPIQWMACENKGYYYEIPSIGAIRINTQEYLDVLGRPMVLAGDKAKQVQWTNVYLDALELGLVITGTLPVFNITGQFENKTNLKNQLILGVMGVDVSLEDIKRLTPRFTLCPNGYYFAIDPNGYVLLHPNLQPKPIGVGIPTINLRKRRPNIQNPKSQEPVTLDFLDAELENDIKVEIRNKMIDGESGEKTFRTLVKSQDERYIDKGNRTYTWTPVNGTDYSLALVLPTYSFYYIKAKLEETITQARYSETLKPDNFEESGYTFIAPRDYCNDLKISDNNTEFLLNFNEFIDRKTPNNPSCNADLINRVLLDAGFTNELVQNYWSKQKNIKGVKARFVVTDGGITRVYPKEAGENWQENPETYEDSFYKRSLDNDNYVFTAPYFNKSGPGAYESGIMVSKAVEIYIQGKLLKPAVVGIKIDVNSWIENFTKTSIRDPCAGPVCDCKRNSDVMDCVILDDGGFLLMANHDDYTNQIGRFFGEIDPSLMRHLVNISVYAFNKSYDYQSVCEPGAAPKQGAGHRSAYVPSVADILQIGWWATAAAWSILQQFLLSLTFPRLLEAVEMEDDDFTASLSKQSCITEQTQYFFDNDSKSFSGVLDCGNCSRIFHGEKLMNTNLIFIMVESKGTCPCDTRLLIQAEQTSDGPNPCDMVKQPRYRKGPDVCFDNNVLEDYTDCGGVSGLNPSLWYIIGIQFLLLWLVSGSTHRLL
Test: biochemical
Assay type: binding
Conditions: read-out: α2δ-1 binding
pKi: −log10 of the molar value.
assay_readout: pKi

CCCC(c1nc2ccccc2c(=O)n1CCN(C)C)N1C[C@@H](C)N[C@@H](C)C1 (some centres unmarked) has a reported pKi of 5.30 to 6.30

====

Below, each entry is listed alongside its reported Ki.
Target: Human α2δ-1 subunit of Cav2.2 calcium channel (Homo sapiens)
Test: biochemical
Assay type: binding

Here's what some known entries look like.
{"molecule": "CCC[C@H](c1nc2ccc(Br)cc2c(=O)n1CC)[C@H]1CCNCC1(F)F (single isomer, unassigned) [Example 189]", "result": "< 500 nM"}
{"molecule": "CCC[C@H](c1nc2ccc(OC)cc2c(=O)n1CC)N1CCN[C@@H](C)C1 [Example 215]", "result": "< 500 nM"}
{"molecule": "CCC[C@@H](c1nc2ccc(Br)cc2c(=O)n1CC)[C@H]1CCN[C@@H](C)C1 [Example 190]", "result": "> 5000 nM"}

Now look at this entry.
The molecule CCC[C@H](c1nc2c(F)cc(Cl)cc2c(=O)n1CC)N1CCNCC1 [Example 199] , when measured on Human α2δ-1 subunit of Cav2.2 calcium channel (Homo sapiens), yielded Ki of < 500 nM

====

Target: Human μ-opioid receptor (Homo sapiens, UniProt P35372)
Sequence (P35372 whole entry): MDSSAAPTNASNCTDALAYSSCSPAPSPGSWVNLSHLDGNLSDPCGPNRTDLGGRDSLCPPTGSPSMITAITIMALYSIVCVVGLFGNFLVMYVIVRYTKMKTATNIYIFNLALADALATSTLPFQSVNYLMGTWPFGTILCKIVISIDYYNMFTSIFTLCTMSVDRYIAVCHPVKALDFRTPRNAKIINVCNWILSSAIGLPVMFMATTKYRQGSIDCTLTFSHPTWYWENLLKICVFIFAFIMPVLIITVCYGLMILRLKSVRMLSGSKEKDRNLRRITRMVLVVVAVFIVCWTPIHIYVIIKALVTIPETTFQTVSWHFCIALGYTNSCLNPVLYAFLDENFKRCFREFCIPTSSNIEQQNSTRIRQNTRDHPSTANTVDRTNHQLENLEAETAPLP
Test: biochemical
Format: binding
Examples of molecules with documented Ki follow.

Example results:
{"molecule": "CCCC(c1nc2ccc(NCC)cc2c(=O)n1CC)N1C[C@@H](C)N[C@@H](C)C1 (stereo partly shown)", "system_tested": "Human μ-opioid receptor (Homo sapiens, UniProt P35372)", "Ki": "> 500 nM"}
{"molecule": "CCC[C@H](c1nc2cc(F)c(F)cc2c(=O)n1CC)N1CCN[C@@H](C)C1", "system_tested": "Human μ-opioid receptor (Homo sapiens, UniProt P35372)", "Ki": "100 to 500 nM"}
{"molecule": "CCC[C@H](c1nc2nc(C(F)(F)F)ccc2c(=O)n1CC)N1CCN[C@@H](C)C1", "system_tested": "Human μ-opioid receptor (Homo sapiens, UniProt P35372)", "Ki": "> 500 nM"}

Now look at this one.
Item: CCC[C@H](c1nc2ccccc2c(=O)n1CC)N1CCN[C@@H](C)C1 | Ki: > 500 nM

====

Reported pKi by item:
Molecular target: Human μ-opioid receptor (Homo sapiens, UniProt P35372)
Assay: biochemical
Assay type: binding
pKi: −log10 of the molar value.

Example results:
{"compound": "CCC[C@H](c1nc2ccc(NCC[C@]3(c4ccccn4)CCOC4(CCCC4)C3)cc2c(=O)n1CC)N1C[C@@H](C)N[C@@H](C)C1 [Example 159]", "system_tested": "Human μ-opioid receptor (Homo sapiens, UniProt P35372)", "pKi": "< 6.30"}
{"compound": "CCC[C@@H](c1nc2ccncc2c(=O)n1CC)N1CCN[C@H](C)C1 [Example 65]", "system_tested": "Human μ-opioid receptor (Homo sapiens, UniProt P35372)", "pKi": "< 6.30"}
{"compound": "CCC[C@H](c1nc2ccc(Br)cc2c(=O)n1CC)[C@H]1CCN[C@@H](C)C1 [Example 191]", "system_tested": "Human μ-opioid receptor (Homo sapiens, UniProt P35372)", "pKi": "6.30 to 7.00"}
{"compound": "CCCC(c1nc2cccc(O)c2c(=O)n1CC)N1C[C@@H](C)N[C@@H](C)C1 (some centres unmarked) [Example 15]", "system_tested": "Human μ-opioid receptor (Homo sapiens, UniProt P35372)", "pKi": "< 6.30"}

Consider CCCC(c1nc2cc(NCCNC)ccc2c(=O)n1CC)N1C[C@@H](C)N[C@@H](C)C1 (some centres unmarked) [Example 147] . Its measured pKi is < 6.30

The reported pKi of the compound CCC[C@H](c1nc2ccc(Br)cc2c(=O)n1CC)N1CCNC(C)(C)C1 [Example 224] was > 7.00

The recorded pKi for CCC[C@@H](c1nc2ccc(Cl)cc2c(=O)n1CC)N1CCN[C@@H](CF)C1 [Example 231] is < 6.30

The reported pKi of the compound CCC[C@@H](c1nc2ccc(Br)cc2c(=O)n1CC)N1CCN[C@H](CF)C1 [Example 57] was < 6.30
